List of EC50 values.
Molecular target: human GLP-1R receptor (Homo sapiens, UniProt P43220)
Sequence (P43220 24-463): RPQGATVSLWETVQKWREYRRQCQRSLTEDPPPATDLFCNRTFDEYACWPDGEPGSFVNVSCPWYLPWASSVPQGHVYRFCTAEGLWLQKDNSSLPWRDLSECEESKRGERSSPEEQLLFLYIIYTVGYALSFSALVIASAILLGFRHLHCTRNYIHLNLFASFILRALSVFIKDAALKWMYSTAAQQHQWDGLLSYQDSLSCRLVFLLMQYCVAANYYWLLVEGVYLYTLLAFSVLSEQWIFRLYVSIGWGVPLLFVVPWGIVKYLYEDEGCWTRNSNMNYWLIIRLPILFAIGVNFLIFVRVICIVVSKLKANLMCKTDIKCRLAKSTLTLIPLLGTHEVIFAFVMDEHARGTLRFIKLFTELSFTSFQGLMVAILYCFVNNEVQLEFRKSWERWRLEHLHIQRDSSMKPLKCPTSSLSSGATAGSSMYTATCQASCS
Assay: GLP-1R low expression cell assay (cAMP TR-FRET, CHO-K1_hGLP-1Rlow_clone10 cells)
Settings: cAMP TR-FRET, 30 min at 25° C.

>>> value_reported("COc1cc(C(=O)O)cc2c1nc(CN1CCC(c3cccc(OCc4ccc(C#N)cc4F)n3)CC1)n2C[C@@H]1CCO1 [Compound 8]")
"< 10 nM"
>>> value_reported("Cn1c(CN2CCC(Oc3cccc(Cc4ccc(C#N)cc4F)n3)CC2)nc2c(OC(F)F)cc(C(=O)O)cc21 [Compound 157]")
"100 to 1000 nM"
>>> value_reported("Cn1c(CN2CCC(c3cccc4c3O[C@@H](c3ccc(Cl)cc3F)CC4)CC2)nc2c(OC(F)F)cc(C(=O)O)cc21 [Compound 369]")
"> 1000 nM"

# ---- query molecule ----
What does the record list as EC50 for Cn1c(CN2CCC(c3cccc(OCc4ccc(C#N)cc4F)n3)CC2)nc2c(O)cc(C(=O)O)cc21 [Compound 114] ?
< 10 nM
